target: Mannose-6-phosphate isomerase (Homo sapiens); assay: inhibitors of human PMI, primary screen, biochemical, fluorescence intensity, coupled assay (AID 1209); conditions: purified PMI enzyme, at 20 µM, active compounds read high;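 note: plate controls were DMSO vehicle for no effect and wells lacking substrate for full effect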
The whole screen tested about 190,000 compounds, of which about 810 (0.43%) were called active. The list comes from a sample in which actives are over-represented; it also holds close analogues and randomly drawn compounds.
Recorded inhibition by entry
measured endpoint: inhibition (%)

[[record]]
molecule = "CC/C(C)=N\\N=C\\c1c(O)n(CC)c2cc(C3=NNC(=O)CC3)ccc12"
measured_number = -47.5

[[record]]
molecule = "CCOc1ccc(/C=N/n2cnnc2)cc1"
measured_number = 84.4

[[record]]
molecule = "C(=N\\n1cnnc1)/c1ccc(OCc2ccccc2)cc1"
measured_number = -5.7

[[record]]
molecule = "CNC[C@H](O)c1ccc(O)c(O)c1"
measured_number = 63.2

[[record]]
molecule = "CCC(NC(C)C)C(O)c1ccc(O)c(O)c1 (configuration not stated)"
measured_number = 57.9

[[record]]
molecule = "CCC(NC(C)C)C(O)c1ccc(O)c2[nH]c(=O)ccc12 (configuration not stated)"
measured_number = 4.3

[[record]]
molecule = "COc1cc(-c2nnc(SCc3cc(=O)oc4cc(C)ccc34)o2)cc(OC)c1OC"
measured_number = 12.5

[[record]]
molecule = "Cc1cc(OCC(O)CN)ccc1Cl (configuration not stated)"
measured_number = -8.6

[[record]]
molecule = "C=CCNc1ccc(F)c(F)c1N1CCCCCC1=O"
measured_number = 4.8

[[record]]
molecule = "COc1ccc2nc(NC(=O)CNS(=O)(=O)c3cccs3)sc2c1"
measured_number = 1.5

[[record]]
molecule = "CCC(C)c1ccc(O)c(N)c1 (configuration not stated)"
measured_number = 26.6

[[record]]
molecule = "COc1cc(-c2nnc(SCc3cc(=O)oc4cc(O)c(O)cc34)o2)cc(OC)c1OC"
measured_number = 60.1

